- Tested on: Fibrinogen (Alexa647-labelled)
- protocol: fibrinogen binders on compound microarrays, profiling panel, artefact control for SMM control-protein annotation, biochemical, small-molecule microarray, 635/667 nm fluorescence (AID 1131);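 note: z-score merges 667 nm fluorescence with per-spot signal-to-noise over triplicate slides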
- conditionLabel: fibrinogen-A647 binding fluorescence, higher = more signal
Cut-off -0.04 on composite z-score, inclusive. At or above means true (1); below means false (0).

IN: I'd appreciate it if you could say whether COc1ccc(O[C@H]2C=C[C@@H](c3ccccc3)O[C@@H]2CON=C[C@@H](C)[C@H](OCc2ccccc2)C(C)C)cc1 has composite z-score at least equal to -0.04.
OUT: false (0)

IN: I'd appreciate it if you could say whether COc1ccc([Si](C)(C)[C@H]2[C@H](CCO)O[C@@]3(C(=O)N(Cc4cccc(NC(=O)[C@H](C)O)c4)c4ccccc43)[C@@H]2C)cc1 has composite z-score at least equal to -0.04.
OUT: true (1)

IN: I'd appreciate it if you could say whether [N-]=[N+]=NCc1ccccc1[C@@H]1OC(c2ccc(OCCCO)cc2)=N[C@]1(Cc1ccccc1)C(=O)N1CCOCC1 has composite z-score at least equal to -0.04.
OUT: true (1)

IN: I'd appreciate it if you could say whether O=C1CCCC=C1C(O)CCOCc1ccccc1 (stereo unspecified) has composite z-score at least equal to -0.04.
OUT: false (0)

IN: I'd appreciate it if you could say whether CCOC(=O)[C@H](Cc1ccccc1)NC(=O)CCC1CC(OC(=O)NCc2ccc3c(c2)OCO3)CC2(CCCC(COC(=O)NCC3CCCCC3)O2)O1 (stereo partly specified) has composite z-score at least equal to -0.04.
OUT: true (1)

IN: I'd appreciate it if you could say whether COc1ccccc1CN1C(=O)c2ccccc2[C@@H](C(=O)NCC(F)(F)F)[C@@H]1c1ccc(CO)cc1 has composite z-score at least equal to -0.04.
OUT: true (1)

IN: I'd appreciate it if you could say whether Cn1cccc1C(O)C1C=CC2C(=O)NC(=O)C2N1Nc1ccccn1 (stereo unspecified) has composite z-score at least equal to -0.04.
OUT: true (1)

IN: I'd appreciate it if you could say whether CCOC(=O)NN=C1C[C@@H](O)[C@@H](O)[C@@H]2[C@@H]3C(=O)N(C(C)(C)C)C(=O)[C@@H]3CC[C@@H]12 has composite z-score at least equal to -0.04.
OUT: false (0)

IN: I'd appreciate it if you could say whether COC(=O)c1c(CC[C@@H](CO)NC(=O)N[C@H](Cc2ccccc2)Cn2cc(-c3ccccc3N)nn2)oc(C(C)=O)c1C(=O)OC has composite z-score at least equal to -0.04.
OUT: true (1)

IN: I'd appreciate it if you could say whether COCCCNC(=O)[C@@]1(CCS(=O)(=O)c2ccccc2)N=C(c2ccc(OCCCO)cc2)O[C@H]1c1ccccc1 has composite z-score at least equal to -0.04.
OUT: true (1)

IN: I'd appreciate it if you could say whether C[C@H](c1ccccc1)N1C(=O)[C@H]2[C@H]3[C@H](O)[C@H](O)CC(=O)[C@@H]3CC[C@H]2C1=O has composite z-score at least equal to -0.04.
OUT: true (1)

IN: I'd appreciate it if you could say whether CCOC(=O)[C@H](Cc1ccccc1)NC(=O)CCC1CC(OC(=O)NCc2ccc3c(c2)OCO3)CC2(CCCC(COC(=O)NCc3cccc(C(F)(F)F)c3)O2)O1 (stereo partly specified) has composite z-score at least equal to -0.04.
OUT: false (0)

IN: I'd appreciate it if you could say whether C#CCCCON=C1C[C@@H](O)[C@@H](O)[C@@H]2[C@@H]3C(=O)N(c4cccc(Oc5ccccc5)c4)C(=O)[C@@H]3CC[C@@H]12 has composite z-score at least equal to -0.04.
OUT: true (1)

IN: I'd appreciate it if you could say whether Cc1cc2c(c(=O)o1)[C@H](O)[C@H]1O[C@H]1C2=O has composite z-score at least equal to -0.04.
OUT: false (0)

IN: I'd appreciate it if you could say whether C=CCN1C(=O)[C@]2(O[C@H](CCn3cc(CCO)nn3)[C@@H]([Si](C)(C)c3ccc(OC)cc3)[C@@H]2C)c2cc(N3CCOC3=O)ccc21 has composite z-score at least equal to -0.04.
OUT: true (1)
